Field: IC50 at 48 h. Provide a value for each of the molecules that follow.
Test: Cytotoxicity against human HEK293T cells assessed as cell viability incubated for 48 hrs by MTT assay
Type: toxicity, cell-based, HEK-293T
Include the unit after the number when you answer.

-- ask Which IC50 at 48 h reading was recorded for the molecule COc1cc(OC)c(-c2nc3cc(N4CCOCC4)c(C#Cc4ccc(Cl)cc4)cc3[nH]2)cc1OC ?
-- reply 36100 nM

-- ask Lookup COc1ccc(C#Cc2cc3[nH]c(-c4cc(OC)c(OC)c(OC)c4)nc3cc2N2CCN(C)CC2)cc1
-- reply 410 nM

-- ask Likewise for COc1cc(OC)c(-c2nc3cc(N4CCN(C)CC4)c(C#Cc4ccc(Cl)cc4)cc3[nH]2)cc1OC ?
-- reply 1640 nM

-- ask Here is the next molecule: COc1cc(-c2nc3cc(N4CCN(C)CC4)c(C#Cc4ccc(C(F)(F)F)cc4)cc3[nH]2)cc(OC)c1OC
-- reply 1410 nM

---

Task for the reader: assign each of the following compounds its reported IC50 at 48 h.
Test: Cytotoxicity against human L02 cells assessed as cell viability incubated for 48 hrs by MTT assay
Type: toxicity, cell-based
Form entry: value (µM) — number only.

-- ask Which IC50 at 48 h value belongs to COc1cc(OC)c(-c2nc3cc(N4CCOCC4)c(C#Cc4ccccc4Cl)cc3[nH]2)cc1OC ?
-- reply 18.9

-- ask Same question, COc1cc(-c2nc3cc(N4CCN(C)CC4)c(C#Cc4ccc(C(F)(F)F)cc4)cc3[nH]2)cc(OC)c1OC this time
-- reply 2.3

-- ask Same read-out for COc1cc(-c2nc3cc(N4CCN(C)CC4)c(C#Cc4ccccc4)cc3[nH]2)cc(OC)c1OC ?
-- reply 3.82

-- ask Next up: COc1cc(-c2nc3cc(N4CCOCC4)c(C#Cc4ccccc4)cc3[nH]2)cc(OC)c1OC
-- reply 9.09

-- ask Next: COc1cc(OC)c(-c2nc3cc(N4CCOCC4)c(C#Cc4ccccc4)cc3[nH]2)cc1OC
-- reply 34.1

-- ask Try COc1cc(OC)c(-c2nc3cc(N4CCN(C)CC4)c(C#Cc4ccccc4Cl)cc3[nH]2)cc1OC next.
-- reply 2.04

-- ask Same question, COc1cc(-c2nc3cc(N4CCOCC4)c(/C=C/C(=O)NC(C)(C)C)cc3[nH]2)cc(OC)c1OC this time
-- reply 9.92

-- ask Further, for COc1ccc(C#Cc2cc3[nH]c(-c4cc(OC)c(OC)c(OC)c4)nc3cc2N2CCN(C)CC2)cc1 ?
-- reply 2.29

-- ask Then Nc1cc(C(F)(F)F)c(-c2cc(N3CCOCC3)nc(N3CCOCC3)n2)cn1 ?
-- reply 59.2

-- ask Similarly, COc1cc(-c2nc3cc(N4CCOCC4)c(C#Cc4ccccc4F)cc3[nH]2)cc(OC)c1OC ?
-- reply 6.98

-- ask Moving on to the next compound: COc1cc(OC)c(-c2nc3cc(N4CCN(C)CC4)c(C#Cc4ccccc4)cc3[nH]2)cc1OC
-- reply 6.59

---

Experiment: Acute toxicity in AB-wild type zebrafish embryo assessed as mortalities at 100 uM measured after 96 hrs
Parameters: species or system Danio rerio
Conditions: in vivo, read-out: Activity
assay metric: mortality at 96 h, 100 µM (%)
// units = %; emit number, no label

-- ask For the compound COc1cc(-c2nc3cc(N4CCN(C)CC4)c(C#Cc4ccccc4F)cc3[nH]2)cc(OC)c1OC , what mortality at 96 h, 100 µM is on record?
-- reply 0
